System: Saccharomyces cerevisiae
Assay: protein stability index of tFT-peptide fusion (C-terminal peptide) (PSI (0-1 scale)); higher = more stable (slower turnover);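 further: PSI is a weighted mean of sequencing reads over stability bins, variants kept only with over 10 reads, mCherry proximal and sfGFP distal, peptide attached via GGGS linker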
Conditions: genetic background: das1 deletion; temperature: 30 C
Listed below: protein stability index values for each entry.

| seqText | measuredOn | resultType | recordedResult |
| --- | --- | --- | --- |
| GTSDLIALLMLT | Saccharomyces cerevisiae | protein stability index | 0.607 |

[Q] Please state recorded protein stability index (tested on Saccharomyces cerevisiae) of "WGVVMVCVVFGL"
[A] 0.186

[Q] Please state recorded protein stability index (tested on Saccharomyces cerevisiae) of "LASWVVFIWFLW"
[A] 0.278

[Q] Please state recorded protein stability index (tested on Saccharomyces cerevisiae) of "IGLSIWSVVSAL"
[A] 0.535

====

Listed below: protein stability index values for each entry.
System: Saccharomyces cerevisiae
Experiment: protein stability index of tFT-peptide fusion (C-terminal peptide) (PSI (0-1 scale)); higher = more stable (slower turnover)
Details: genetic background: wild type; temperature: 30 C
Please respond with just the number, no unit label.

Worked cases, answers included:
| seqText | protein stability index |
| --- | --- |
| RILNADSREHSS | 0.775 |
| LSLGVGSDAEGG | 0.549 |
| RFLLSITSSLVL | 0.666 |

[Q] Please state recorded protein stability index (tested on Saccharomyces cerevisiae) of "PPRAPSPLPPPL"
[A] 0.704

[Q] Please state recorded protein stability index (tested on Saccharomyces cerevisiae) of "GRWRVLREVGAS"
[A] 0.664

[Q] Please state recorded protein stability index (tested on Saccharomyces cerevisiae) of "GVNGSGFLSEVI"
[A] 0.68

[Q] Please state recorded protein stability index (tested on Saccharomyces cerevisiae) of "GSLPQLRAACRA"
[A] 0.566

[Q] Please state recorded protein stability index (tested on Saccharomyces cerevisiae) of "FRFNPGSCSRPV"
[A] 0.681

[Q] Please state recorded protein stability index (tested on Saccharomyces cerevisiae) of "GGGWAVLLWVQV"
[A] 0.406

[Q] Please state recorded protein stability index (tested on Saccharomyces cerevisiae) of "NVRCLVELGGEV"
[A] 0.714

[Q] Please state recorded protein stability index (tested on Saccharomyces cerevisiae) of "VPPSCPRPPTAP"
[A] 0.676

[Q] Please state recorded protein stability index (tested on Saccharomyces cerevisiae) of "RGARGGSRGGGG"
[A] 0.677

====

Test system: Saccharomyces cerevisiae
Test: protein stability index of tFT-peptide fusion (C-terminal peptide) (PSI (0-1 scale)); higher = more stable (slower turnover)
Conditions: genetic background: cdc34-1; temperature: 37 C
# label = true (1) if protein stability index >= 0.5 else false (0)

Worked examples, 5 sequences total:
| seqText | classAssignment |
| --- | --- |
| TYCFRVCAWRAN | true (1) |
| CSSSNRRRYFVL | true (1) |
| VSDLYLSLVRVV | true (1) |
| GIISMYVARRLG | true (1) |
| LLMLWWARVFSG | false (0) |

[Q] For this sequence, is measured protein stability index 0.5 or higher? "RSKKIFLTKKYS"
[A] true (1)

[Q] For this sequence, is measured protein stability index 0.5 or higher? "FCFYLLFLGFTR"
[A] false (0)

[Q] For this sequence, is measured protein stability index 0.5 or higher? "GMLIYVIGGLSH"
[A] true (1)

[Q] For this sequence, is measured protein stability index 0.5 or higher? "LFLLYVLVSLFV"
[A] false (0)

[Q] For this sequence, is measured protein stability index 0.5 or higher? "FPFHSRPCLPVL"
[A] true (1)

[Q] For this sequence, is measured protein stability index 0.5 or higher? "LAKPTVRKIICV"
[A] false (0)

[Q] For this sequence, is measured protein stability index 0.5 or higher? "RVLILCLFFRWS"
[A] false (0)

[Q] For this sequence, is measured protein stability index 0.5 or higher? "GWIFFYFTWFVG"
[A] false (0)

[Q] For this sequence, is measured protein stability index 0.5 or higher? "RPPHPPPATFLS"
[A] true (1)

[Q] For this sequence, is measured protein stability index 0.5 or higher? "WLSISNLVIACR"
[A] false (0)

[Q] For this sequence, is measured protein stability index 0.5 or higher? "GAQQRVKERYIE"
[A] true (1)

[Q] For this sequence, is measured protein stability index 0.5 or higher? "GLLVFRCINLRC"
[A] false (0)

[Q] For this sequence, is measured protein stability index 0.5 or higher? "LGATYSVQLYVS"
[A] false (0)

====

Test system: Saccharomyces cerevisiae
Assay: protein stability index of tFT-peptide fusion (C-terminal peptide) (PSI (0-1 scale)); higher = more stable (slower turnover)
Details: genetic background: wild type; temperature: 30 C
resultType: protein stability index
Please respond with just the number, no unit label.

Worked cases, answers included:
| seqText | protein stability index |
| --- | --- |
| VCDLLLTLSFCV | 0.587 |
| WSPLFPLLASST | 0.678 |
| RSRCVRAAVKVG | 0.324 |
| NPLRVRNNNDGL | 0.745 |
| VGPPWSISLSII | 0.636 |
| CVCHWTALCIQI | 0.512 |
| PRPPPPPASVCR | 0.658 |
| PTPIPLGLHSLS | 0.705 |

[Q] Would you mind telling me what protein stability index value was observed for "CSLRLCVRGAIV" ?
[A] 0.0268

[Q] Would you mind telling me what protein stability index value was observed for "VEWLGWFGISNK" ?
[A] 0.76

[Q] Would you mind telling me what protein stability index value was observed for "KSAGNWSKGKRE" ?
[A] 0.713

====

System: Saccharomyces cerevisiae
Assay: protein stability index of tFT-peptide fusion (C-terminal peptide) (PSI (0-1 scale)); higher = more stable (slower turnover)
Conditions: genetic background: wild type; temperature: 30 C
# label = true (1) if protein stability index >= 0.7 else false (0)

Worked examples, 3 sequences total:
| seqText | classAssignment |
| --- | --- |
| YSCFFFLFSFFF | false (0) |
| VPGYLLIDFWWV | false (0) |
| VGQVVTCFMSDA | false (0) |

[Q] For this sequence, is measured protein stability index 0.7 or higher? "WHGDDSSIWQVG"
[A] true (1)

[Q] For this sequence, is measured protein stability index 0.7 or higher? "RVMELEGRSKLK"
[A] false (0)

[Q] For this sequence, is measured protein stability index 0.7 or higher? "LLPFIPPPPCPP"
[A] false (0)

[Q] For this sequence, is measured protein stability index 0.7 or higher? "LFRRPLLRPPPF"
[A] true (1)

====

Listed below: protein stability index values for each entry.
Test system: Saccharomyces cerevisiae
Assay: protein stability index of tFT-peptide fusion (C-terminal peptide) (PSI (0-1 scale)); higher = more stable (slower turnover)
Details: genetic background: wild type; temperature: 30 C
Please respond with just the number, no unit label.

| seqText | resultType | recordedResult |
| --- | --- | --- |
| RTPPLPLLPPHP | protein stability index | 0.788 |
| STYIMTFTSWEP | protein stability index | 0.68 |

Lab note: next sequence to report on.
[Q] Would you mind telling me what protein stability index value was observed for "GGAGEAWGGLRW" ?
[A] 0.767

====

Test system: Saccharomyces cerevisiae
Assay: protein stability index of tFT-peptide fusion (C-terminal peptide) (PSI (0-1 scale)); higher = more stable (slower turnover)
Conditions: genetic background: wild type; temperature: 30 C
resultType: protein stability index
Please respond with just the number, no unit label.

Worked cases, answers included:
| seqText | measuredOn | protein stability index |
| --- | --- | --- |
| KATNLNKVRRWE | Saccharomyces cerevisiae | 0.693 |
| DRVRGLCIPNGP | Saccharomyces cerevisiae | 0.681 |
| LDPPHTLPRSAP | Saccharomyces cerevisiae | 0.71 |
| RNGALSVVCDYV | Saccharomyces cerevisiae | 0.698 |
| KWLAQLEHEKYN | Saccharomyces cerevisiae | 0.696 |

[Q] Would you mind telling me what protein stability index value was observed for "PGFFRLSLFPFA" ?
[A] 0.713

[Q] Would you mind telling me what protein stability index value was observed for "NTSPTRLSCPVF" ?
[A] 0.616

[Q] Would you mind telling me what protein stability index value was observed for "PPPTLYPPPFPP" ?
[A] 0.659

[Q] Would you mind telling me what protein stability index value was observed for "SEVIIAISNKNH" ?
[A] 0.528

====

Listed below: protein stability index values for each entry.
Tested on: Saccharomyces cerevisiae
Assay: protein stability index of tFT-peptide fusion (C-terminal peptide) (PSI (0-1 scale)); higher = more stable (slower turnover)
Conditions: genetic background: wild type; temperature: 30 C
Please respond with just the number, no unit label.

Worked cases, answers included:
| seqText | protein stability index |
| --- | --- |
| GSIWGVGWGQGV | 0.682 |
| PPSRTPFLPPFR | 0.691 |
| AGSRGIVREIVL | 0.68 |
| SCAPRSPCTPPP | 0.718 |
| LGGGVVCGVWGG | 0.704 |

[Q] Would you mind telling me what protein stability index value was observed for "LYKKRSCCLSPL" ?
[A] 0.714

[Q] Would you mind telling me what protein stability index value was observed for "PLPPPSPSSLSP" ?
[A] 0.713

[Q] Would you mind telling me what protein stability index value was observed for "FPPPPRPPLSFP" ?
[A] 0.711

[Q] Would you mind telling me what protein stability index value was observed for "GGGRALGRVWPG" ?
[A] 0.684

[Q] Would you mind telling me what protein stability index value was observed for "SPPYPPPPVAST" ?
[A] 0.707

[Q] Would you mind telling me what protein stability index value was observed for "PLHSPPSRPCQL" ?
[A] 0.691

Provenance of the data: the supplement of paper PMC10724198
